- TARGET ENTITY: CETP (Homo sapiens)
- Sequence (P11597 18-493): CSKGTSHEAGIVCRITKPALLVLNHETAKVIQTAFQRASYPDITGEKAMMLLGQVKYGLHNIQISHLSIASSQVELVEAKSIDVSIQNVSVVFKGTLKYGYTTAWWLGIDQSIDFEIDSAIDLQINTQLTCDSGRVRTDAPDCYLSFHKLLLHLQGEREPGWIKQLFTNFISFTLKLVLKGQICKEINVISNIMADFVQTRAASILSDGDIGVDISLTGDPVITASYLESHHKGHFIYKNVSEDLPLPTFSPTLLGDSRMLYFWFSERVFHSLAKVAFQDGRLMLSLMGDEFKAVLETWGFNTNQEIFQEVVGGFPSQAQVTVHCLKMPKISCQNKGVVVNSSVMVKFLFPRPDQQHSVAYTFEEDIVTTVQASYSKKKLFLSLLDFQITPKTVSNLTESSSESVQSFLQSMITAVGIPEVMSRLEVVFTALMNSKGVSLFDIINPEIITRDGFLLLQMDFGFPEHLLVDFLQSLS
- TEST NAME: Assay of CETP Inhibition using Purified Components (Reconstituted Buffer Assay)
- Format: biochemical
- Parameters: made in house; host or cells: CHO cells (serum-free conditioned medium)
- CONDITION DETAILS: Inhibition of CETP activity in reconstituted buffer assay; transfer of [3H]CE from HDL to LDL; read-out: IC50
Exercise: state measured IC50 for each of the compounds provided.
# output: bare number, implied unit nM

Sample OC(CN(Cc1cccc(OC(F)(F)C(F)F)c1)c1cccc(Nc2cccc(Cl)c2)c1)C(F)(F)F (stereo not shown) [Example 304] — what was its IC50?
1900

Sample OC(CN(Cc1ccc(Cl)s1)c1cccc(OC(F)(F)F)c1)C(F)(F)F (stereo not shown) [Example 321] — what was its IC50?
5000

Sample OC(COc1cccc(CN(CC(O)C(F)(F)F)c2cccc(Oc3ccc(F)cc3)c2)c1)C(F)(F)F (stereo not shown) [Example 655B] — what was its IC50?
1300

Sample O=C(c1ccccc1)c1cccc(N(Cc2cccc(OC(F)(F)C(F)F)c2)CC(O)C(F)(F)F)c1 (stereo not shown) [Example 579] — what was its IC50?
1800

Sample OC(CN(Cc1cccc(OC(F)(F)C(F)F)c1)c1cccc(Oc2ccc(Cl)cc2Cl)c1)C(F)(F)F (stereo not shown) [Example 231] — what was its IC50?
340

Sample OC(CN(Cc1cccc(OC(F)(F)C(F)F)c1)c1cccc(OCc2ccc(F)c(C(F)(F)F)c2)c1)C(F)(F)F (stereo not shown) [Example 412] — what was its IC50?
710

Sample OC(CN(Cc1cccc(OC(F)(F)C(F)F)c1)c1cccc(Oc2cc(F)ccc2F)c1)C(F)(F)F (stereo not shown) [Example 235] — what was its IC50?
310

Sample FC(CN(Cc1cccc(OC(F)(F)C(F)F)c1)c1cccc(Oc2ccccc2)c1)C(F)(F)F (stereo not shown) [Example 1669] — what was its IC50?
17000

Sample OC(CN(Cc1cccc(OC(F)(F)C(F)F)c1)c1cccc(OCc2cccc(C(F)(F)F)c2F)c1)C(F)(F)F (stereo not shown) [Example 400] — what was its IC50?
210

Sample OC(CN(Cc1cccc(OC(F)(F)C(F)F)c1)c1cccc(Oc2ccc(F)c(Cl)c2)c1)C(F)(F)F (stereo not shown) [Example 245] — what was its IC50?
210

Sample CCN(C)C(=O)c1cccc(CN(CC(O)C(F)(F)F)c2cccc(Oc3ccccc3)c2)c1 (stereo not shown) [compound 613] — what was its IC50?
10000

###

Exercise: state measured IC50 for each of the molecules provided.
- TARGET ENTITY: CETP (Homo sapiens)
- TEST NAME: Assay of CETP Inhibition using Purified Components (Reconstituted Buffer Assay)
- Assay type: biochemical
- Parameters: made in house; host or cells: CHO cells (serum-free conditioned medium)
- CONDITION DETAILS: Inhibition of CETP activity in reconstituted buffer assay; transfer of [3H]CE from HDL to LDL; read-out: IC50
# output: bare number, implied unit µM

Sample OC(COC(F)(F)C(F)F)CN(Cc1cccc(OC(F)(F)F)c1)c1cccc(Oc2ccccc2)c1 (stereo not shown) — what was its IC50?
3.6

Sample COc1cccc(Cc2cccc(N(Cc3cccc(OC(F)(F)C(F)F)c3)CC(O)C(F)(F)F)c2)c1 (stereo not shown) — what was its IC50?
0.58
